Listed here: items and their measured IC50.
target: Flk-1 (Homo sapiens); experiment: Phospho-Flk1 phosphotyrosine ELISA (cytoblot) on whole U251 glioblastoma cells; Flk1 kinase inhibition; type: cell-based; conditions: Table 4; U251 cells overexpress Flk1; read-out: Flk-1 kinase Inhibition, apparent IC50
Sequence (P35968 20-1356): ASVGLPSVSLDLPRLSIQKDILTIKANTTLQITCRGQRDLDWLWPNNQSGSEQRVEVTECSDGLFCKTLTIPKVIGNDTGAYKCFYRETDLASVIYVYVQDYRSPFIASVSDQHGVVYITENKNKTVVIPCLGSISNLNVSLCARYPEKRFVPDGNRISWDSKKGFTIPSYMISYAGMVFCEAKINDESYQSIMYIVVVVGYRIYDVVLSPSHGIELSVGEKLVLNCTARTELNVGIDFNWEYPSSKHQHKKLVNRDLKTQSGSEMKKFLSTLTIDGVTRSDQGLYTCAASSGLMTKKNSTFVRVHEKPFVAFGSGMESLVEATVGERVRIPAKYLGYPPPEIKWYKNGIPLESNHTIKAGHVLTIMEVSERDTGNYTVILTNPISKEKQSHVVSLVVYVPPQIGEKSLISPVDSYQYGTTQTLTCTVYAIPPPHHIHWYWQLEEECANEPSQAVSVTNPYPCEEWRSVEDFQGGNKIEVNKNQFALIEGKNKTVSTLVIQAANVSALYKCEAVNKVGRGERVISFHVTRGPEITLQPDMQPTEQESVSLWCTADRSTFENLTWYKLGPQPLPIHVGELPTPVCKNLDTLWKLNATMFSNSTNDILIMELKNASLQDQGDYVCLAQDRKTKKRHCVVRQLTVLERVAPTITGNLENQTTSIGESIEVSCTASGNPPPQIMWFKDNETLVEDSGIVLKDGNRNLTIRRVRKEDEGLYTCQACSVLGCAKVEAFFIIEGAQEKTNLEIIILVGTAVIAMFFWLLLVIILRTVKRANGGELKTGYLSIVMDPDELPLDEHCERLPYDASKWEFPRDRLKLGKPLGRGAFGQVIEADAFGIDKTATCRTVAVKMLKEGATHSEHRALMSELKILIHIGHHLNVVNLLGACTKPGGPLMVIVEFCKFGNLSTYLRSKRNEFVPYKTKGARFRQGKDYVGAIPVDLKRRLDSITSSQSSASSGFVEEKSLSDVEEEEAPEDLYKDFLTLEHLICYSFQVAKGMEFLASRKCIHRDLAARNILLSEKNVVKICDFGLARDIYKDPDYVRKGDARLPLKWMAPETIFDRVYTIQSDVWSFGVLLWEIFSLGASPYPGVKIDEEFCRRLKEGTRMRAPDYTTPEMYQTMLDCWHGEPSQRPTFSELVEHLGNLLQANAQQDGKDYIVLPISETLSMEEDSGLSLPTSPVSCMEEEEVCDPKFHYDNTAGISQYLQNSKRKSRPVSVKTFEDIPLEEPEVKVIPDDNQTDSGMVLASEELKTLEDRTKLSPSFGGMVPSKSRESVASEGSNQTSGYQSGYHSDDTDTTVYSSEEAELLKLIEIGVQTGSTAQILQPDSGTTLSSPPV
experimental_readout: IC50 (nM)

smiles_data=COc1ccc(OC)c(Cc2cc3c(Nc4cccc(Br)c4)nc(N)nc3[nH]2)c1 limit_qualifier== readout_value=600
smiles_data=Nc1nc(Nc2cccc(Br)c2)c2cc(Cc3ccc4ccccc4c3)[nH]c2n1 limit_qualifier=> readout_value=50000

====

target: Flt-1 (Homo sapiens, UniProt P17948); assay: Flt-1 kinase inhibition; details: Table 4; read-out: Flt-1 kinase Inhibition, apparent IC50
Sequence (P17948 27-1338, species assumed): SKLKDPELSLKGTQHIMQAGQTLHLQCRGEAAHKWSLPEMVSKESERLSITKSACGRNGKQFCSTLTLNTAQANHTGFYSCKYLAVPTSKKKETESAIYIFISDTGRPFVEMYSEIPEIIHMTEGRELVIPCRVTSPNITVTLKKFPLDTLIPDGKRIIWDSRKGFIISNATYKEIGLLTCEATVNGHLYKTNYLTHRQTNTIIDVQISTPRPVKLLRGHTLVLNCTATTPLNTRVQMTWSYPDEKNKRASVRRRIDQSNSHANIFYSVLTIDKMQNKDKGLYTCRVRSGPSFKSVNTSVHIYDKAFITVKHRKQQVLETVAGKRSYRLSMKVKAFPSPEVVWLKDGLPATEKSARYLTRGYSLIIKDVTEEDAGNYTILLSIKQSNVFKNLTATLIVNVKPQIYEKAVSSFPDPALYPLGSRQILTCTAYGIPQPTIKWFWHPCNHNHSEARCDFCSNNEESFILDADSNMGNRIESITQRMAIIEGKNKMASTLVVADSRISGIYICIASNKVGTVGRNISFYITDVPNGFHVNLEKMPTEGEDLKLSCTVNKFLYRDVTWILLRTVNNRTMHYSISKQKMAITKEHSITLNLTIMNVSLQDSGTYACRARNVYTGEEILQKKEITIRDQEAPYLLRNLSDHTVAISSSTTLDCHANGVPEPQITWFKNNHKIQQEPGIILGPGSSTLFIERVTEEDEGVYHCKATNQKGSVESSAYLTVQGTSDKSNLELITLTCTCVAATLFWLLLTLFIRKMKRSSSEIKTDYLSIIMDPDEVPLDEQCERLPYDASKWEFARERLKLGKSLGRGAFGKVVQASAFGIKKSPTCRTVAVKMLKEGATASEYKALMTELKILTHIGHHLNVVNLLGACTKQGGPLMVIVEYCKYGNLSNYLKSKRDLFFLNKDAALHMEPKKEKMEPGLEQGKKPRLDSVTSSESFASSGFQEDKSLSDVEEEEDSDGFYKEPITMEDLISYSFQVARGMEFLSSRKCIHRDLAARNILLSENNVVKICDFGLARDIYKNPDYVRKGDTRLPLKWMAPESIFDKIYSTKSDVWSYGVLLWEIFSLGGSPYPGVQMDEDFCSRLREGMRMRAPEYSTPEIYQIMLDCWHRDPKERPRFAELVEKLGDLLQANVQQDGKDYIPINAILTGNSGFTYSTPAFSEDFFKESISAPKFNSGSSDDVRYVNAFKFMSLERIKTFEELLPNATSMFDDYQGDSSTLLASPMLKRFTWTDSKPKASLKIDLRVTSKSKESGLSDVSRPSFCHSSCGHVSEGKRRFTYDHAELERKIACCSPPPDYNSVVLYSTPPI
pIC50: −log10 of the molar value.
experimental_readout: pIC50

compound="Cc1ccccc1Cc1cc2c(Nc3cccc(Br)c3)nc(N)nc2[nH]1 [YJ/AG 168]" experimental_target="Flt-1 (Homo sapiens, UniProt P17948)" experimental_readout=pIC50 readout_value="< 4.30"
